Value source: patent US6436929B1

MEASUREMENT_LABEL: melting point

Consider the following illustrative entries.
CC1(C)OC(=S)Nc2ccc(-c3ccc(F)c(F)c3)cc21	209 to 211 °C
CC1(C)OC(=S)Nc2ccc(-c3cc(F)cc(F)c3)cc21	224 to 225 °C
CC1(C)OC(=S)Nc2ccc(-c3cccc(F)c3F)cc21	197 to 198 °C
CC1(C)OC(=S)Nc2ccc(-c3cc(Br)cc(OC(F)(F)F)c3)cc21	192 to 193 °C
CC1(C)OC(=S)Nc2ccc(-c3cncc(Br)c3)cc21	252 to 253 °C
CC1OC(=S)Nc2ccc(-c3cccc(F)c3)cc21 (stereo not shown)	173 to 174 °C

Measured melting point of `COc1cc(C#N)cc(-c2ccc3c(c2)C(C)(C)OC(=S)N3)c1` : 201 to 202 °C

Measured melting point of `CC1(C)OC(=S)Nc2ccc(-c3ccc(C#N)s3)cc21` : 242 to 244 °C

Measured melting point of `CC1(C)OC(=S)Nc2ccc(-c3coc(C#N)c3)cc21` : 214 to 216 °C

Measured melting point of `CCn1c(C#N)ccc1-c1ccc2c(c1)C(C)(C)OC(=S)N2` : 212 to 213 °C
